Test system: rodent lifetime carcinogenesis bioassay, tumor incidence TD50
Assay: carcinogenic potency in animals, long-term in vivo studies, CPDB compilation (AID 1745844)
Details: mouse; strain B6AKF1; females; oral dosing; site: liver; lesion: hepatoma; dosed 85 weeks; study length 85 weeks
measure name: TD50 (mg/kg/day)
Kindly answer with a numeric value in mg/kg/day, unit omitted.

Challenge: Entry under review: CC(C)N(C(=O)SCC(Cl)=CCl)C(C)C . Reported TD50?
Response given: 516

* * *

Tested on: rodent lifetime carcinogenesis bioassay, tumor incidence TD50
Assay: carcinogenic potency in animals, long-term in vivo studies, CPDB compilation (AID 1745844)
Conditions: hamster; strain Syrian Golden; males; inhaled; site: nose; lesion: anaplastic carcinoma; dosed 52 weeks; study length 81 weeks
measure name: TD50

Challenge: What reported TD50 corresponds to CC=O on rodent lifetime carcinogenesis bioassay, tumor incidence TD50?
Response given: 2070 mg/kg/day

* * *

Tested on: rodent lifetime carcinogenesis bioassay, tumor incidence TD50
Test: carcinogenic potency in animals, long-term in vivo studies, CPDB compilation (AID 1745844)
Conditions: mouse; strain B6C3F1; females; in feed; site: liver; lesion: hepatocellular adenoma; dosed 104 weeks; study length 105 weeks
measure name: TD50

Challenge: Entry under review: C[C@H]1CCCC(=O)CCC/C=C/c2cc(O)cc(O)c2C(=O)O1 . Reported TD50?
Response given: 50.1 mg/kg/day

* * *

Tested on: rodent lifetime carcinogenesis bioassay, tumor incidence TD50
Assay: carcinogenic potency in animals, long-term in vivo studies, CPDB compilation (AID 1745844)
Details: rat; strain Fischer 344; males; in feed; site: urinary bladder; lesion: transitional-cell papilloma; dosed 27 weeks; study length 104 weeks
measure name: TD50

Challenge: Entry under review: COc1ccccc1[N+](=O)[O-] . Reported TD50?
Response given: 75.6 mg/kg/day

* * *

Tested on: rodent lifetime carcinogenesis bioassay, tumor incidence TD50
Test: carcinogenic potency in animals, long-term in vivo studies, CPDB compilation (AID 1745844)
Conditions: rat; strain Fischer 344; females; in feed; site: liver; lesion: hepatocellular adenoma + hepatoblastoma + hepatocellular carcinoma; dosed 66 weeks; study length 66 weeks
measure name: TD50 (mg/kg/day)
Kindly answer with a numeric value in mg/kg/day, unit omitted.

Challenge: Entry under review: Nc1c(Br)cc(Br)c2c1C(=O)c1ccccc1C2=O . Reported TD50?
Response given: 121

* * *

System: rodent lifetime carcinogenesis bioassay, tumor incidence TD50
Experiment: carcinogenic potency in animals, long-term in vivo studies, CPDB compilation (AID 1745844)
Details: rat; strain Fischer 344; males; in drinking water; site: any site (literature study); lesion: several types; types named in the paper; dosed 97 weeks; study length 97 weeks
measure name: TD50 (mg/kg/day)
Kindly answer with a numeric value in mg/kg/day, unit omitted.

Challenge: Entry under review: COc1cc(-c2ccc(N=Nc3c(S(=O)(=O)O)cc4cc(S(=O)(=O)O)cc(N)c4c3O)c(OC)c2)ccc1N=Nc1c(S(=O)(=O)O)cc2cc(S(=O)(=O)O)cc(N)c2c1O . Reported TD50?
Response given: 12

* * *

Test system: rodent lifetime carcinogenesis bioassay, tumor incidence TD50
Test: carcinogenic potency in animals, long-term in vivo studies, CPDB compilation (AID 1745844)
Details: mouse; strain B6C3F1; females; inhaled; site: Zymbal's gland; lesion: carcinoma; dosed 104 weeks; study length 104 weeks
measure name: TD50

Challenge: Entry under review: C=CC(=C)Cl . Reported TD50?
Response given: 864 mg/kg/day
